Attribution: PubChem BioAssay AID248

Would you mind telling me the reported T/C of each entry?
test system: L1210 leukemia ip in BDF1 mice, survival T/C; experiment: NCI In Vivo Anticancer Drug Screen. Data for tumor model L1210 Leukemia (intraperitoneal) in B6D2F1 (BDF1) mice; conditions: endpoint: mean survival time; dose: 100.0 mg/kg/injection; schedule: Q01DX009 (ip); vehicle: Klucel (hydroxypropylcellulose) (HPC); higher = longer survival
Inconclusive results and toxic doses are left out.

Input "O=[N+]([O-])c1cccc(/C=N/NC(=S)Nc2ccccc2)c1" . Output T/C: 89 % of control

Input "O=C(Nc1ccccc1F)Oc1ccc2ccccc2c1" . Output T/C: 106 % of control

Input "COC(=O)C1=C(C(=O)OC)C2C=CC1C2" . Output T/C: 111 % of control

Input CCOC12c3ccccc3N(S(C)(=O)=O)C(C)C1C2(Br)Br (stereo unspecified) . Output T/C: 94 % of control

Input O=[N+]([O-])c1ccc(S(=O)(=O)C2CCCCC2Cl)cc1 (stereo unspecified) . Output T/C: 88 % of control

Input "Cc1ccc(C(=O)NC(N)=O)cc1" . Output T/C: 101 % of control

Input "Nc1ccccc1S(=O)(=O)Nc1ccccc1" . Output T/C: 98 % of control

Input CCOC(=O)C(C#N)N=O (stereo unspecified) . Output T/C: 97 % of control

Input "O=C(COc1cccc([N+](=O)[O-])c1)Nc1ccc(S(=O)(=O)F)cc1" . Output T/C: 102 % of control

Input "Cc1ccc(NC(=O)Oc2cc(C)c(Cl)cc2C(C)C)cc1" . Output T/C: 98 % of control

Input "Cc1ccc(C(C)C)cc1NC(=O)Nc1ccccc1F" . Output T/C: 91 % of control

Input "O=C1C2=C(NC1(c1ccccc1)c1ccccc1)c1ccccc1C2" . Output T/C: 105 % of control

Input "NC(=O)N1C(=O)C=CC1=O" . Output T/C: 105 % of control

Input "CC(C)=NNC(=O)Nc1cccc(C)c1C" . Output T/C: 90 % of control

Input "O=C(/C=C/C(=O)Oc1ccccc1)Oc1ccccc1" . Output T/C: 88 % of control

Input "O=Cc1ccc(N2CCOCC2)cc1" . Output T/C: 97 % of control

Input CC[N+]12CC=C(CO)C1C(O)CC2 (stereo unspecified) . Output T/C: 95 % of control

Input "COc1ccc(OC)c(NC(=O)Oc2ccc(NC(C)=O)cc2)c1" . Output T/C: 104 % of control

Input NC(Cc1cnc(N=Nc2ccc(S(N)(=O)=O)cc2)[nH]1)C(=O)O (stereo unspecified) . Output T/C: 93 % of control

Input "O=C(Nc1ccc(F)cc1)Nc1cc(C(F)(F)F)ccc1Cl" . Output T/C: 92 % of control

Input "O=C(NO)c1ccccc1O" . Output T/C: 104 % of control

Input "CCCCCCCCCCCCCCC(=O)c1ccccc1" . Output T/C: 100 % of control

Input "COc1ccc(C=Nc2ccc(Cl)cc2)cc1" . Output T/C: 96 % of control

Input "CNC(=S)NN=C(c1ccccc1)c1ccccc1" . Output T/C: 91 % of control

Input "CC(C)P(=O)(OCc1ccccc1)C(C)C" . Output T/C: 97 % of control

Input "CCCCOC(=O)c1ccc(OC(=O)Nc2ccc([N+](=O)[O-])cc2OC)cc1" . Output T/C: 96 % of control

Input "C=C(C)COP(=O)(OCC(=C)C)OCC(=C)C" . Output T/C: 97 % of control

Input "Cc1cccc(OC(=O)Nc2cccc3ccccc23)c1" . Output T/C: 93 % of control

Input COc1c(C)cc(Br)c2c1C(CCN(C)S(=O)(=O)Cc1ccccc1)CCC2 (stereo unspecified) . Output T/C: 95 % of control

Input "COc1ccc(NC(=O)Nc2cc(C)ccc2C)cc1" . Output T/C: 89 % of control

Input "Cc1ccc(NC(=S)N2CCC(CCCC3CCN(C(=S)Nc4ccc(C)c(C)c4)CC3)CC2)cc1C" . Output T/C: 93 % of control

Input CC(=O)OCC12CCC(O1)C1C(=O)OC(=O)C12 (stereo unspecified) . Output T/C: 91 % of control

Input O=C(O)c1ccc2c(c1)NC(c1cccc3ccccc13)NC2=O (stereo unspecified) . Output T/C: 94 % of control

Input "CCOc1ccc(/C=N/NS(=O)(=O)c2ccc(C)cc2)cc1" . Output T/C: 104 % of control

Input "CC1CCN(C(=O)Nc2ccc(Cl)cc2[N+](=O)[O-])CC1" . Output T/C: 92 % of control

Input Cc1cc(O)c(C(C)C)cc1C1=NCC(C)S1 (stereo unspecified) . Output T/C: 102 % of control

Input "Clc1ccc(C(Cl)(Cl)Cl)cc1Cl" . Output T/C: 103 % of control

Input "COC(=O)c1ccccc1C(=O)Nc1cc(C(F)(F)F)ccc1Cl" . Output T/C: 100 % of control

Input "O=C1C=CC(=O)C2=C1C1c3ccccc3C2([N+](=O)[O-])c2ccccc21" . Output T/C: 100 % of control

Input "C(=N\OCc1ccccc1)/c1ccccn1" . Output T/C: 94 % of control

Input "O=C(Oc1cccc(O)c1)c1ccccc1" . Output T/C: 100 % of control

Input "CSc1nc(C)c(Cl)c(SC)n1" . Output T/C: 117 % of control

Input "O=C(COc1ccccc1Cl)NCc1ccc(Cl)cc1" . Output T/C: 92 % of control

Input "CC(C)(C)c1cc(/C=N/NC(=O)CCCCCCCCC(=O)N/N=C/c2cc(C(C)(C)C)c(O)c(C(C)(C)C)c2)cc(C(C)(C)C)c1O" . Output T/C: 94 % of control

Input "Cc1ccc(S(=O)(=O)Nc2ccc([N+](=O)[O-])cc2O)cc1" . Output T/C: 97 % of control

Input "O=C(Nc1ccc(C(=O)O)cc1)Nc1cccc(F)c1" . Output T/C: 111 % of control

Input "CCCCCCCC(=O)c1ccc(NC(C)=O)cc1" . Output T/C: 103 % of control

Input CC(OC(=O)c1ccccc1)c1ccccc1 (stereo unspecified) . Output T/C: 94 % of control

Input "O=C(c1ccc(-c2ccccc2)cc1)C1CC1" . Output T/C: 97 % of control

Input "C=CCOc1ccc2c(C)cc(=O)oc2c1C" . Output T/C: 94 % of control

Input "c1ccc2c(c1)NC1(CCCCC1)S2" . Output T/C: 99 % of control

###

Would you mind telling me the reported T/C of each entry?
system: L1210 leukemia ip in BDF1 mice, survival T/C; assay: NCI In Vivo Anticancer Drug Screen. Data for tumor model L1210 Leukemia (intraperitoneal) in B6D2F1 (BDF1) mice; settings: endpoint: mean survival time; dose: 5.0 mg/kg/injection; schedule: Q01DX001 (ip); vehicle: saline; higher = longer survival
Toxic doses and inconclusive results are not listed.

Noted T/C for "c1ccc(C[As+](c2ccccc2)(c2ccccc2)c2ccccc2)cc1" , tested on L1210 leukemia ip in BDF1 mice, survival T/C: 101 % of control

Noted T/C for "CCCCCCCCCCCCCCCC[N+]1(CC)CCOCC1" , tested on L1210 leukemia ip in BDF1 mice, survival T/C: 100 % of control

Noted T/C for "CCCCCCCCCCCC[n+]1cccc(C)c1" , tested on L1210 leukemia ip in BDF1 mice, survival T/C: 94 % of control

Noted T/C for "c1ccc([As+](c2ccccc2)(c2ccccc2)c2ccccc2)cc1" , tested on L1210 leukemia ip in BDF1 mice, survival T/C: 106 % of control

Noted T/C for CC(O)CN(CCN(CC(C)O)CC(C)O)CCN(CC(C)O)CC(C)O.O=S(=O)([O-])[O-].[Cu+2] (stereo unspecified) , tested on L1210 leukemia ip in BDF1 mice, survival T/C: 102 % of control

Noted T/C for "CC(C)(C)OC(=O)CSC#N" , tested on L1210 leukemia ip in BDF1 mice, survival T/C: 101 % of control

###

tested on: L1210 leukemia ip in BDF1 mice, survival T/C; assay: NCI In Vivo Anticancer Drug Screen. Data for tumor model L1210 Leukemia (intraperitoneal) in B6D2F1 (BDF1) mice; conditions: endpoint: mean survival time; dose: 50.0 mg/kg/injection; schedule: Q04DX002 (ip); vehicle: saline with Tween-80; higher = longer survival
Toxic doses and inconclusive results are not listed.
quantity.kind: T/C

Noted T/C for "CCOC(=O)/C=C1\CCCc2ccc(Cl)cc21" , tested on L1210 leukemia ip in BDF1 mice, survival T/C: 111 % of control

Noted T/C for N#CC(C(=O)Nc1cccc(C(F)(F)F)c1)C(=S)Nc1ccccc1Cl (stereo unspecified) , tested on L1210 leukemia ip in BDF1 mice, survival T/C: 105 % of control

Noted T/C for "c1ccc(N=Nc2cccnn2)cc1" , tested on L1210 leukemia ip in BDF1 mice, survival T/C: 97 % of control

Noted T/C for "CCc1cc2c(cc1C(=O)CCN1CCCC1)C(C)(C)CCC2(C)C" , tested on L1210 leukemia ip in BDF1 mice, survival T/C: 90 % of control

Noted T/C for CCCCC(CN)c1cccc2ccccc12 (stereo unspecified) , tested on L1210 leukemia ip in BDF1 mice, survival T/C: 92 % of control

Noted T/C for CC(=O)OC1C=C2CCCCC2(C)CC1 (stereo unspecified) , tested on L1210 leukemia ip in BDF1 mice, survival T/C: 96 % of control
